# Target Desc: UniProt P25090
# Sequence (P25090 1-351): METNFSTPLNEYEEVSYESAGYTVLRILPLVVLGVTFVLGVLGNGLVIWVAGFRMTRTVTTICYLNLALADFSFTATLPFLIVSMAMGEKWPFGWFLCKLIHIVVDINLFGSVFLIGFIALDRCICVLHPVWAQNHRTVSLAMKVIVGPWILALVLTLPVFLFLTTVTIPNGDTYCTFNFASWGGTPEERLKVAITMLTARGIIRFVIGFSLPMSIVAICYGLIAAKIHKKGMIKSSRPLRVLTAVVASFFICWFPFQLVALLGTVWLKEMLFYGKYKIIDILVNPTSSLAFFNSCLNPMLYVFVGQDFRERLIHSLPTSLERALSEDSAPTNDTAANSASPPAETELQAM
# Protocol Description: Agonistic activity in hFPR2-Aq-CHO cells (FLIPR Calcium 5 fluorescence assay)
# Condition: 11 point half log dilution, final assay concentration from 10µM
Measured Metric: EC50 (nM)

O=C(Nc1ccc(Cl)cc1)N[C@@H]1CC(=O)N(c2ccc(F)cc2)C[C@H]1c1ccc(Cl)cn1 (relative stereo)    0.4

a: COc1ccc([C@@H]2CN(C3(C#N)CC3)CC[C@H]2NC(=O)Nc2ccc(Cl)cc2)nc1 (relative stereo)
b: CS(=O)(=O)n1ccc(CN2CC[C@@H](NC(=O)Nc3ccccc3)[C@H](c3ccc(Cl)s3)C2)n1 (single isomer, unassigned) [Ex-56]
query: Pick one: a or b . Which one has the lower reported EC50? Give the label of your selection.
result: a
(a: 0.5 nM, b: 0.9 nM)

====

# Target Desc: h FPR2 (Homo sapiens, UniProt P25090)
# Protocol Description: Agonistic activity in hFPR2-Aq-CHO cells (FLIPR Calcium 5 fluorescence assay)
# Condition: 11 point half log dilution, final assay concentration from 10µM
Measured Metric: EC50 (nM)

In the examples that follow, each entry is paired with its recorded EC50.
COc1ccc([C@@H]2CN(C(=O)C3CCC(OC)CC3)CC[C@H]2NC(=O)Nc2ccc(Cl)cc2)nc1 (relative stereo) [Ex-81]    13
O=C(Nc1ccc(Cl)cc1)N[C@@H]1CCN(C(=O)C2CCNCC2)C[C@H]1c1ccc(Cl)s1 (relative stereo) [Ex-130]    4
Cc1cc(N2CC[C@@H](NC(=O)Nc3cc(C)ns3)[C@H](c3ccc(Cl)cn3)C2)ncn1 (relative stereo) [Ex-31]    5
COc1ccc([C@@H]2CN(Cc3cc(C)on3)CC[C@H]2NC(=O)Nc2ccc(Cl)cc2)nc1 (single isomer, unassigned) [Ex-29]    11
COc1ccc([C@@H]2CN(CCCO)CC[C@H]2NC(=O)Nc2ccccc2)nc1 (relative stereo) [Ex-159]    57
COc1ccc([C@@H]2CN(C(=O)c3cnccc3C(F)(F)F)CC[C@H]2NC(=O)Nc2ccc(Cl)cc2)nc1 (single isomer, unassigned) [Ex-99]    0.4

I: COc1ccc([C@@H]2CN(CC(F)F)CC[C@H]2NC(=O)Nc2ccc(Cl)cc2)nc1 (single isomer, unassigned) [Ex-36]
II: COc1ccc([C@@H]2CN(CC3COC3)CC[C@H]2NC(=O)Nc2ccccc2)nc1 (relative stereo) [Ex-161]
III: COc1ccc([C@@H]2CN(C(=O)CO)CC[C@H]2NC(=O)Nc2cc(C)ns2)nc1 (relative stereo) [Ex-123]
query: Falling order of EC50, please. // format: requested-order list of labels
result: I, II, III
(I: 85 nM, II: 28 nM, III: 18 nM)

P: O=C(Nc1ccc(Cl)cc1)N[C@@H]1CCN(C(=O)C2CCC(O)CC2)C[C@H]1c1ccc(Cl)s1 (relative stereo) [Ex-132]
Q: COc1ccc([C@@H]2CN(C(=O)CN(C)C)CC[C@H]2NC(=O)Nc2ccccc2)nc1 (relative stereo) [Ex-157]
query: Pick one, P or Q : lowest reported EC50. Returns: label corresponding to the selected item.
result: P

====

# Target Desc: h FPR2 (Homo sapiens, UniProt P25090)
# Sequence (P25090 1-351): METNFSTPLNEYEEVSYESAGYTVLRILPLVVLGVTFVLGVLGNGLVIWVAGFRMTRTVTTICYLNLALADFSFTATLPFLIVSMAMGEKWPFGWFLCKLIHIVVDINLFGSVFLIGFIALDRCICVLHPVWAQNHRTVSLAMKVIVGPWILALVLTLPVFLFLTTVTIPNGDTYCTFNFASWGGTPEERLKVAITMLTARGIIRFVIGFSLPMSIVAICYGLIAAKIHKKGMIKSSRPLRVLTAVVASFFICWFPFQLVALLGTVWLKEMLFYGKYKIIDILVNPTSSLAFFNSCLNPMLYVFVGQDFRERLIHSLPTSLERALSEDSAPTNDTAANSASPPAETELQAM
# Protocol Description: Agonistic activity in hFPR2-Aq-CHO cells (FLIPR Calcium 5 fluorescence assay)
# Condition: 11 point half log dilution, final assay concentration from 10µM
Measured Metric: EC50 (nM)

COc1ccc([C@@H]2CN(CC3(O)CCC3)CC[C@H]2NC(=O)Nc2ccc(Cl)cc2)nc1 (relative stereo) [Ex-220]    0.4
COc1ccc([C@H]2CN(CC(=O)N(C)C)CC[C@@H]2NC(=O)Nc2ccc(Cl)cc2)nc1 [Ex-216]    2
COc1ccc([C@@H]2CN(c3ccc(F)cc3)C(=O)C[C@H]2NC(=O)Nc2ccc(Cl)cc2)cn1 (relative stereo) [Ex-5]    0.16

I: O=C(Nc1ccc(Cl)cc1)N[C@@H]1CCN(Cc2ncccn2)C[C@H]1c1ccc(Cl)s1 (single isomer, unassigned) [Ex-46]
II: COc1ccc([C@@H]2CN(C(=O)C3CCC(O)CC3)CC[C@H]2NC(=O)Nc2ccc(Cl)cc2)nc1 (relative stereo) [Ex-90]
III: COc1ccc([C@@H]2CN(CC3CC3)CC[C@H]2NC(=O)Nc2ccc(Cl)cc2)nc1 (single isomer, unassigned) [Ex-172]
IV: COc1ccc([C@@H]2CN(CC3CC(OC)C3)CC[C@H]2NC(=O)Nc2ccc(Cl)cc2)nc1 (single isomer, unassigned) [Ex-202]
query: List the 4 entries from lowest EC50 to highest EC50 value. A complete answer lists every label in the requested sequence.
result: III, I, IV, II

====

# Target Desc: UniProtKB P25090
# Protocol Description: Agonistic activity in hFPR2-Aq-CHO cells (FLIPR Calcium 5 fluorescence assay)
# Condition: 11 point half log dilution, final assay concentration from 10µM
pEC50: −log10 of the molar value.
Measured Metric: pEC50

COc1ccc([C@@H]2CN(C(=O)c3ccc(C)nc3)CC[C@H]2NC(=O)Nc2ccc(Cl)cc2)nc1 (single isomer, unassigned) [Ex-54]    9.22
COc1ccc([C@@H]2CN(Cc3ccn(S(C)(=O)=O)n3)CC[C@H]2NC(=O)Nc2ccccc2)nc1 (single isomer, unassigned)    9.40
COc1ccc([C@@H]2CN(C(=O)C3COC3)CC[C@H]2NC(=O)Nc2cc(C)ns2)nc1 (relative stereo)    8.05

I: COc1ccc([C@@H]2CN(c3cncc(C)n3)CC[C@H]2NC(=O)Nc2ccc(Cl)cc2)nc1 (relative stereo)
II: COc1ccc([C@@H]2CN(C(=O)CCN(C)C)CC[C@H]2NC(=O)Nc2ccc(Cl)cc2)nc1 (relative stereo)
query: // select label with min value of measured pEC50 from [ I , II ] Answer = label.
result: II
(II: 7.92, I: 8.30)

I: CN1CCC(C(=O)N2CC[C@@H](NC(=O)Nc3ccc(Cl)cc3)[C@H](c3ccc(Cl)s3)C2)CC1 (relative stereo)
II: CNCCN1CC[C@@H](NC(=O)Nc2ccc(Cl)cc2)[C@H](c2ccc(OC)cn2)C1 (relative stereo)
query: Between I and II , whose recorded pEC50 is greater? Output the label that corresponds to your choice.
result: II

====

# Target Desc: h FPR2 (Homo sapiens)
# Construct: expressed in transfected cells
# Sequence (P25090 1-351): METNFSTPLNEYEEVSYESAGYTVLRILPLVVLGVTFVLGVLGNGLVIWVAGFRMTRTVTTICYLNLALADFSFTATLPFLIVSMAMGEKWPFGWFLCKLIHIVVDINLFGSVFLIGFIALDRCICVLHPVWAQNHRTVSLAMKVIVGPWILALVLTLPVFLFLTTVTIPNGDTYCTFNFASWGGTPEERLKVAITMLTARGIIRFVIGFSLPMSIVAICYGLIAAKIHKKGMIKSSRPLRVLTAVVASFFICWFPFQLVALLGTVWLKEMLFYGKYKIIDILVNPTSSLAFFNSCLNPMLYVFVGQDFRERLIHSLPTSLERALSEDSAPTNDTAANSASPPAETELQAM
# Protocol Description: Agonistic activity in hFPR2-Aq-CHO cells (FLIPR Calcium 5 fluorescence assay)
# Format: cell-based
# Condition: 11 point half log dilution, final assay concentration from 10µM
Measured Metric: EC50 (nM)

COc1ccc([C@@H]2CN(CCO)CC[C@H]2NC(=O)Nc2cc(C)ns2)nc1 (relative stereo)    3
COCCN1CC[C@@H](NC(=O)Nc2ccc(C#N)cc2)[C@H](c2ccc(OC)cn2)C1 (relative stereo)    10
COc1ccc([C@@H]2CN(C(=O)C3CCN(C)CC3)CC[C@H]2NC(=O)Nc2ccc(Cl)cc2)nc1 (racemic) [Ex-89]    2

1: COc1ccc([C@@H]2CN(Cc3ccn(S(C)(=O)=O)n3)CC[C@H]2NC(=O)Nc2ccc(Cl)cc2)nc1 (single isomer, unassigned) [Ex-43]
2: CNC(=O)CN1CC[C@H](NC(=O)Nc2ccc(Cl)cc2)[C@@H](c2ccc(OC)cn2)C1
query: # return whichever of 1 and 2 has the smaller EC50 Please reply using the label of the selected record.
result: 1
(1: 0.03 nM, 2: 0.3 nM)

I: COC1CCC(C(=O)N2CC[C@@H](NC(=O)Nc3ccc(Cl)cc3)[C@H](c3ccc(Cl)s3)C2)CC1 (relative stereo)
II: Cc1cc(NC(=O)N[C@@H]2CCN(c3ccnc(C)n3)C[C@H]2c2ccc(Cl)cn2)sn1 (relative stereo)
query: When the recorded EC50 values are compared, which is smaller: that of I or that of II ? // output: label of the selected item
result: II
